meta.source: patent US10766952B2

Target: T1, human α-CGRP (Homo sapiens, UniProt P06881)
T1 construct: 1-37 (WT); purchased; host or cells: synthetic peptide
T1 sequence (P06881 83-119 limits assumed): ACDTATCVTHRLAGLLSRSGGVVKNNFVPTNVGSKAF
Test: Biacore affinity of antibody G1 Fab and variants to human α-CGRP
Assay type: binding
Details: 37° C., Fab, screening mode unless underlined
Method: Biacore assay for affinity determination. […] All Biacore assays were conducted in HBS-EP running buffer (10 mM HEPES pH 7.4, 150 mM NaCl, 3 mM EDTA, 0.005% v/v polysorbate P20). […] High-resolution analysis of binding interactions with extremely slow offrates. […] The association rate constant (kon) was determined by injecting a 2-fold titration series (in duplicate) spanning 550 nM-1 nM for 30 seconds at 100 μL/min and allowing only a 30 second dissociation phase. […]
REPORTED METRIC: α-human koff (s⁻¹)
One number for each entry, in s⁻¹.

input: Please report the recorded α-human koff for M34: G1 variant: L1 R28N,T30G; H2 E54K,A57N,S58T; HC-FW3 L99T,A100V (antibody, V domains shown) VH: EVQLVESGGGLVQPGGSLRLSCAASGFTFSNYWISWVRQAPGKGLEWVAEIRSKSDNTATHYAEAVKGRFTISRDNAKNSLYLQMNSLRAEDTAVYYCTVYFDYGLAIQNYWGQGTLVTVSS VL: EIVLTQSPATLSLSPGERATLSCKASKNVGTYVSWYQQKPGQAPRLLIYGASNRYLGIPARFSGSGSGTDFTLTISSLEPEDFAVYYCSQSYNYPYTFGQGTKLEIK .
output: 0.000646
